# tgt: HLA-A*11:01
# assay-info: IEDB peptide-MHC binding, purified MHC/direct/fluorescence; filed as Kd, often an IC50 or EC50 that approximates it; bounds were set here for any values at or beyond the usual limits of such assays
# recorded-conditions: source organism: Human immunodeficiency virus 1
property-measured: pKd
On this scale, pKd is minus log10 of a concentration expressed in M (mol/L).

Asked: Could you share what pKd was measured for TVLDVGDAY , tested on HLA-A*11:01?
Given back: 6.36

---

# tgt: HLA-A*68:01
# assay-info: IEDB peptide-MHC binding, purified MHC/competitive/radioactivity; filed as Kd, often an IC50 or EC50 that approximates it; bounds were set here for any values at or beyond the usual limits of such assays
# recorded-conditions: source organism: SARS coronavirus ZJ0301
property-measured: Kd
The reply should consist of the numeric value with the unit placed after it.

Asked: For the sequence shown here, LLNSNALLR , give the reported Kd.
Given back: 687 nM

Origin of values: the Immune Epitope Database (IEDB)
